target: human α7 nAChRs transiently expressed in Xenopus laevis oocytes (Homo sapiens (Human), UniProt P36544); test: Oocyte electrophysiology screen (TEVC); type: cell-based; details: 0.01 mM test compound, peak current relative to 0.2 mM ACh
Sequence (P36544 23-502 limits assumed): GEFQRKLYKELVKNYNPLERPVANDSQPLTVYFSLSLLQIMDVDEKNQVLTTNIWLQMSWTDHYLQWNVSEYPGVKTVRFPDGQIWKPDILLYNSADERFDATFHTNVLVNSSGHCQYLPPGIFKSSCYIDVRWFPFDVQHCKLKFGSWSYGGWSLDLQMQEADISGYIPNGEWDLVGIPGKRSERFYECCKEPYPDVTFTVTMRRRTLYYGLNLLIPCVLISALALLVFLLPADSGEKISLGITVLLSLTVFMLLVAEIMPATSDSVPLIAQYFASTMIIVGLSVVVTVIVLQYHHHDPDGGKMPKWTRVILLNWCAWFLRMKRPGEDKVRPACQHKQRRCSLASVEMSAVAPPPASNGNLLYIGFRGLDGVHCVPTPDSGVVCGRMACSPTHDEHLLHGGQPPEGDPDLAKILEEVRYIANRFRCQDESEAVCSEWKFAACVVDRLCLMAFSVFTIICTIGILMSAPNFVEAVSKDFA
Counter-ions that a name gives are not always drawn.
Form field: % ACh @ 10 μM Oocyte (one value per entry).
A complete answer gives the number and then names the unit.

Lab book: % ACh @ 10 μM Oocyte of CC(C)Oc1ccc2cc(C(=O)N[C@@H]3C4CCN(CC4)C3(C)C)sc2c1 [(R)-47, hydrochloride] noted as 1 % ACh

% ACh @ 10 μM Oocyte recorded for this compound, CC1(C)[C@@H](NC(=O)c2cc3ccc(Cl)cc3s2)C2CCN1CC2 [(S)-12, hydrochloride] , is 3 % ACh

compound COc1ccc2cc(C(=O)N[C@H]3C4CCN(CC4)C3(C)C)sc2c1 [(S)-20, hydrochloride] , % ACh @ 10 μM Oocyte observed: 5 % ACh

New cases:
// % ACh @ 10 μM Oocyte lookup, compound = CC1(C)[C@@H](NC(=O)c2ccc3ccsc3c2)C2CCN1CC2 [(S)-5, hydrochloride] , result: 9 % ACh

According to the records, this compound CS(=O)(=O)c1ccc2cc(C(=O)N[C@@H]3C4CCN(CC4)C34CC4)sc2c1 [(R)-103, hydrochloride] displays % ACh @ 10 μM Oocyte of 2 % ACh

For record CC1(C)[C@H](NC(=O)c2cc3ccc(S(C)(=O)=O)cc3s2)C2CCN1CC2 [(R)-48, hydrochloride] the listed % ACh @ 10 μM Oocyte is 0 % ACh

* * *

biological target: human α7 nAChRs transiently expressed in Xenopus laevis oocytes (Homo sapiens (Human), UniProt P36544); assay: Oocyte electrophysiology screen (TEVC); assay type: cell-based; conditions: 0.01 mM test compound, peak current relative to 0.2 mM ACh
Counter-ions that a name gives are not always drawn.
Listed below: % ACh @ 10 μM Oocyte values for each entry.
Could you give me the number in % ACh? Just the number is fine.

Previously resolved entries follow.
% ACh @ 10 μM Oocyte for CC1(C)[C@H](NC(=O)c2ccc3oc(Cl)cc3c2)C2CCN1CC2 [(R)-39, hydrochloride] is 697

Lab note: COc1ccc2cc(C(=O)N[C@@H]3C4CCN(CC4)C3(C)C)sc2c1Cl [(R)-112, hydrochloride] gave % ACh @ 10 μM Oocyte of 234

Just so you know, measured % ACh @ 10 μM Oocyte for Cc1ccc2cc(C(=O)N[C@@H]3C4CCN(CC4)C3(C)C)sc2c1 [(R)-15, hydrochloride] came out at 539

New cases:
Given item CC1(C)[C@H](NC(=O)c2cc3ccc(Br)cc3s2)C2CCN1CC2 [(R)-46, hydrochloride] , the value recorded as its % ACh @ 10 μM Oocyte is 301

Documented % ACh @ 10 μM Oocyte of CC1(C)[C@H](NC(=O)c2cc3cccc(C#N)c3s2)C2CCN1CC2 [(R)-115, hydrochloride] : 215

Lab note: measured % ACh @ 10 μM Oocyte of CC1(C)[C@@H](NC(=O)c2cc3cccc(F)c3s2)C2CCN1CC2 [(S)-4, hydrochloride] was 17

Entry CC1(C)[C@H](NC(=O)c2cc3ccc(C(F)(F)F)cc3s2)C2CCN1CC2 [(R)-10, hydrochloride] , % ACh @ 10 μM Oocyte reported as 1

Form field % ACh @ 10 μM Oocyte, entry O=C(NC1C2CCN(CC2)C12CC2)c1cc2ccc(C(F)(F)F)cc2s1 (single isomer, unassigned; enantiomer2) [63b] : 3

* * *

molecular target: human α7 nAChRs transiently expressed in Xenopus laevis oocytes (Homo sapiens (Human)); assay: Oocyte electrophysiology screen (TEVC); assay type: cell-based; conditions: 0.01 mM test compound, peak current relative to 0.2 mM ACh; hydrochloride
Structures can show the parent of a compound that is named as a salt.
REPORTED_METRIC: % ACh @ 10 μM Oocyte
Just the number plus its unit, please.

Before answering, review these 2 worked examples.
Reported % ACh @ 10 μM Oocyte of Cc1ccc2cc(C(=O)NC3C4CCN(CC4)C34CC4)sc2c1 (single isomer, unassigned; enantiomer2) [68b, hydrochloride] : 5 % ACh

Query O=C(NC1C2CCN(CC2)C12CC2)c1cc2ccc(C3CC3)cc2s1 (single isomer, unassigned; enantiomer2) [71b, hydrochloride] yields % ACh @ 10 μM Oocyte of 2 % ACh

---
Recorded result, O=C(NC1C2CCN(CC2)C12CC2)c1cc2cc(C3CC3)ccc2s1 (single isomer, unassigned; enantiomer2) [72b, hydrochloride] , % ACh @ 10 μM Oocyte: 1 % ACh

Consider O=C(NC1C2CCN(CC2)C12CC2)c1cc2ccc(Cl)cc2s1 (single isomer, unassigned; enantiomer1) [65a, hydrochloride] . Its measured % ACh @ 10 μM Oocyte is 682 % ACh

Notebook: COc1ccc2sc(C(=O)NC3C4CCN(CC4)C34CC4)cc2c1 (single isomer, unassigned; enantiomer2) [74b, hydrochloride] , % ACh @ 10 μM Oocyte read as 4 % ACh

* * *

Overview of recorded % ACh @ 10 μM Oocyte for various molecules
molecular target: human α7 nAChRs transiently expressed in Xenopus laevis oocytes (Homo sapiens (Human)); assay: Oocyte electrophysiology screen (TEVC); type: cell-based; details: 0.01 mM test compound, peak current relative to 0.2 mM ACh
Where a name gives a salt, the structure may show the parent alone.
Write the number in % ACh without appending the unit.

The cases that follow already have their % ACh @ 10 μM Oocyte on record.
// % ACh @ 10 μM Oocyte lookup, molecule = O=C(N[C@@H]1C2CCN(CC2)C12CC2)c1cc2ccc(N3CCOCC3)cc2s1 [(R)-99, hydrochloride] , result: 1

% ACh @ 10 μM Oocyte for COc1cccc2cc(C(=O)N[C@@H]3C4CCN(CC4)C3(C)C)sc12 [(R)-116, hydrochloride] is 963

Query COc1ccc2cc(C(=O)N[C@@H]3C4CCN(CC4)C3(C)C)sc2c1F [(R)-51, hydrochloride] yields % ACh @ 10 μM Oocyte of 326

# ---- query molecule ----
Record O=C(N[C@H]1C2CCN(CC2)C12CC2)c1nc2ccccc2s1 [(S)-82, hydrochloride] . Reported % ACh @ 10 μM Oocyte: 2

* * *

target: UniProt P46098; experiment: [3H]BRL 43694 competition binding; settings: CHO cell membranes, [3H]BRL 43694, Cheng Prusoff; read-out: h-5HT3 Ki
Sequence (P46098 24-478): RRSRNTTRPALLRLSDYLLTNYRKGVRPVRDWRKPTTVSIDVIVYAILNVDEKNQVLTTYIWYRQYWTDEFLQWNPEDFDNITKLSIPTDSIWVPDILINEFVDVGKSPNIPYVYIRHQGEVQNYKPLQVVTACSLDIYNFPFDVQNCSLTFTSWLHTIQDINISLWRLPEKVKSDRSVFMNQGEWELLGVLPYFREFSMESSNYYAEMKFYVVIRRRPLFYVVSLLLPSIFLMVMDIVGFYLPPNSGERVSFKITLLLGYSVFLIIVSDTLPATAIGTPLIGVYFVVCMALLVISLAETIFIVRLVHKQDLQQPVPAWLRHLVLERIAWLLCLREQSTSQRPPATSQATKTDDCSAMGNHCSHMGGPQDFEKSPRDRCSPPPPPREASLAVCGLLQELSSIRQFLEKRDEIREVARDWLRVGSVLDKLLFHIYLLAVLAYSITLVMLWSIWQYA
Where a name gives a salt, the structure may show the parent alone.
Entries and their Ki
State the answer as a number, implicitly in nM.

Study these solved cases before continuing.
The compound identified as COc1cccc2cc(C(=O)N[C@@H]3C4CCN(CC4)C3(C)C)sc12 [(R)-116, hydrochloride] registered its Ki at 600

GET /value?item= CC(C)(C)c1cccc2cc(C(=O)N[C@@H]3C4CCN(CC4)C34CC4)sc12 [(R)-184, hydrochloride] &field=Ki returns 110

Data point: CN(C)c1cccc2cc(C(=O)N[C@@H]3C4CCN(CC4)C34CC4)sc12 [(R)-178, hydrochloride] ; Ki = 400

Record summary for CC(C)c1cccc2cc(C(=O)N[C@@H]3C4CCN(CC4)C34CC4)sc12 [(R)-166, hydrochloride] : reported Ki = 325

The compound O=C(N[C@@H]1C2CCN(CC2)C12CC2)c1cc2ccccc2[nH]1 [(R)-170, hydrochloride] showed Ki equal to 800

More entries:
Record summary for CC1(C)[C@H](NC(=O)c2cc3cccc(-c4ccccc4)c3s2)C2CCN1CC2 [(R)-132, hydrochloride] : reported Ki = 100

# Ki of CC1(C)[C@H](NC(=O)c2cc3cc(F)ccc3s2)C2CCN1CC2 [(R)-11, hydrochloride] = 1700

Form field Ki, entry CC1(C)[C@H](NC(=O)c2cc3cc(C4CC4)ccc3s2)C2CCN1CC2 [(R)-19, hydrochloride] : 1600

Given item Cc1ccc2cc(C(=O)N[C@@H]3C4CCN(CC4)C34CC4)sc2c1Cl [(R)-156, hydrochloride] , the value recorded as its Ki is 300

Short answer for CC1(C)[C@H](NC(=O)c2cc3ccc(F)c(Cl)c3s2)C2CCN1CC2 [(R)-114, hydrochloride] : Ki was 620

* * *

target: human α7 nAChRs transiently expressed in Xenopus laevis oocytes (Homo sapiens (Human)); test: Oocyte electrophysiology screen (TEVC); format: cell-based; conditions: 0.01 mM test compound, peak current relative to 0.2 mM ACh
Structures can show the parent of a compound that is named as a salt.
REPORTED_METRIC: % ACh @ 10 μM Oocyte (% ACh)
All answers are understood in % ACh, so give the number only.

Solved entries:
So, CC1(C)[C@H](NC(=O)c2cc3c(cn2)OCCO3)C2CCN1CC2 [(R)-23, hydrochloride] ? Its % ACh @ 10 μM Oocyte was 82

Value of % ACh @ 10 μM Oocyte reported for the molecule CC1(C)[C@H](NC(=O)c2cc3cc(Cl)c(Cl)cc3s2)C2CCN1CC2 [(R)-14, hydrochloride] is 3

// O=C(NC1C2CCN(CC2)C12CC2)c1cc2ccc(F)cc2s1 (single isomer, unassigned; enantiomer2) [61b] : % ACh @ 10 μM Oocyte value = 1

Notebook: Cc1ccc2sc(C(=O)N[C@@H]3C4CCN(CC4)C3(C)C)cc2c1 [(R)-16, hydrochloride] , % ACh @ 10 μM Oocyte read as 74

Entry O=C(N[C@@H]1C2CCN(CC2)C12CC2)c1cc2ccc(Cl)c(F)c2s1 [(R)-151, hydrochloride] , % ACh @ 10 μM Oocyte reported as 409

The reported value for CC1(C)[C@H](NC(=O)c2ccc3occ(Cl)c3c2)C2CCN1CC2 [(R)-41, hydrochloride] in terms of % ACh @ 10 μM Oocyte is 384

Data point: O=C(N[C@H]1C2CCN(CC2)C12CC2)c1cnn2ncccc12 [(S)-80, hydrochloride] ; % ACh @ 10 μM Oocyte = 2

According to the records, this molecule CC1(C)[C@H](NC(=O)c2ccc3occc3c2)C2CCN1CC2 [(R)-6, hydrochloride] displays % ACh @ 10 μM Oocyte of 374

// sample Cc1csc2cc(C(=O)N[C@@H]3C4CCN(CC4)C34CC4)ccc12 [(R)-78, hydrochloride] , its % ACh @ 10 μM Oocyte was 31

Summary for this molecule, CC1(C)[C@H](NC(=O)c2cc3ccc(C4CC4)c(F)c3s2)C2CCN1CC2.Cl [(R)-213] : % ACh @ 10 μM Oocyte is 60

More entries:
Sample Cc1coc2ccc(C(=O)N[C@@H]3C4CCN(CC4)C34CC4)cc12 [(R)-93, hydrochloride] ; % ACh @ 10 μM Oocyte observed: 516

So for O=C(N[C@@H]1C2CCN(CC2)C12CC2)c1cc2cccnc2s1 [(R)-81, hydrochloride] , the logged % ACh @ 10 μM Oocyte turned out to be 449

Entry O=C(NC1C2CCN(CC2)C12CC2)c1cc2ccc(C(F)(F)F)cc2s1 (single isomer, unassigned; enantiomer1) [63a] — recorded % ACh @ 10 μM Oocyte = 3
